The following compounds have recorded Ki on human thrombin (Homo sapiens, UniProt P00734).
Please append the unit to your numeric answer.

See these solved cases before continuing.
{"COMPOUND": "COC(=O)C1OC(NC(=O)C[C@H](NS(=O)(=O)c2c(C)cc(OC)c(C)c2C)C(=O)N[C@H](Cc2ccc(C(=N)N)cc2)C(=O)N2CCCCC2)C(OC(C)=O)C(OC(C)=O)C1OC(C)=O.Cl (stereo partly shown) [Compound 24, hydrochloride]", "Ki": "0.8 nM"}
{"COMPOUND": "COc1cc(C)c(S(=O)(=O)N[C@@H](CC(=O)N[C@@H]2O[C@H](C(=O)O)[C@@H](O)[C@H](O)[C@H]2O)C(=O)N[C@H](Cc2ccc(C(=N)N)cc2)C(=O)N2CCCCC2)c(C)c1C.Cl [Compound 30, hydrochloride]", "Ki": "0.085 nM"}
{"COMPOUND": "COc1cc(C)c(S(=O)(=O)N[C@@H](CC(=O)N[C@@H]2O[C@H](CO)[C@H](O)[C@H](O)[C@H]2NC(C)=O)C(=O)N[C@H](Cc2ccc(C(=N)N)cc2)C(=O)N2CCCCC2)c(C)c1C.Cl", "Ki": "2.1 nM"}
{"COMPOUND": "COc1cc(C)c(S(=O)(=O)N[C@@H](CO[C@@H]2OC[C@@H](O)[C@@H](O)[C@H]2O)C(=O)N[C@H](Cc2ccc(C(=N)N)cc2)C(=O)N2CCCCC2)c(C)c1C.I [Compound 42, hydroiodide]", "Ki": "1.3 nM"}
{"COMPOUND": "COc1cc(C)c(S(=O)(=O)N[C@@H](CC(=O)O)C(=O)N[C@H](Cc2ccc(C(=N)N)cc2)C(=O)N2CCCCC2)c(C)c1C.Cl", "Ki": "1.5 nM"}
{"COMPOUND": "COc1cc(C)c(S(=O)(=O)N[C@@H](CC(=O)N[C@@H]2O[C@H](CO)[C@H](O)[C@H](O)[C@H]2O)C(=O)N[C@H](Cc2ccc(C(=N)N)cc2)C(=O)N2CCCCC2)c(C)c1C.Cl [Compound 41, hydrochloride]", "Ki": "0.04 nM"}
{"COMPOUND": "COc1cc(C)c(S(=O)(=O)N[C@@H](CC(=O)N[C@@H]2O[C@H](CO)[C@@H](O)[C@H](O)[C@H]2O)C(=O)N[C@H](Cc2ccc(C(=N)N)cc2)C(=O)N2CCCCC2)c(C)c1C.Cl [Compound 31, hydrochloride]", "Ki": "0.075 nM"}
{"COMPOUND": "COc1cc(C)c(S(=O)(=O)N[C@@H](CC(=O)N[C@H]2O[C@@H](C)[C@@H](O)[C@@H](O)[C@@H]2O)C(=O)N[C@H](Cc2ccc(C(=N)N)cc2)C(=O)N2CCCCC2)c(C)c1C.Cl [Compound 49, hydrochloride]", "Ki": "0.1 nM"}

Exam item: // query Ki value for entry COc1cc(C)c(S(=O)(=O)N[C@@H](CC(=O)N[C@@H]2O[C@H](COC(C)=O)[C@@H](OC(C)=O)[C@H](OC(C)=O)[C@H]2OC(C)=O)C(=O)N[C@H](Cc2ccc(C(=N)N)cc2)C(=O)N2CCCCC2)c(C)c1C.Cl [Compound 25, hydrochloride]
Marked response: 2.4 nM

Exam item: What Ki value was documented for this compound, COc1cc(C)c(S(=O)(=O)N[C@@H](CC(=O)N[C@@H]2O[C@H](CO)[C@@H](O)[C@H](O)[C@H]2NC(C)=O)C(=O)N[C@H](Cc2ccc(C(=N)N)cc2)C(=O)N2CCCCC2)c(C)c1C.Cl [Compound 32, hydrochloride] ?
Marked response: 1.1 nM
